- assay_notes: yeast display, Sf9 membrane polyspecificity reagent, FACS + sequencing; frameworks hold sequencing errors
parameter_measured: polyreactivity (PSR sort gate)

Reference set (5 entries):
primary_sequence=QVQLVESGGGLVQAGGSLRLSCAASGFTFFVYGMGWYRQAPGKERELVATINWSGASTYYADSVKGRFTISRDNAKNTVYLQMNSLKPEDTAVYSCAKDGHYPLVYLAFDYWGQGTQVTVSS observed_value="low polyreactivity"
primary_sequence=QVQLVESGGGLVQAGGSLRLSCAASGSISADYVMGWYRQAPGKDRELVAAISVSAGTTYYADSVKGRFTISRDNAKNTVYLQMNSLKPEDTAVYYCAATDSYYWLYYYGYSPGNDYWGQGTQVTVSS observed_value="low polyreactivity"
primary_sequence=QVQLVESGGGLVQAGGSLRLSCAASGSNFTSYAMGWYRQAPGKERELVAAISKSGGSTYYADSVKGRFTISRDNAKNTVYLQMNSLKPEDTAVFYCAARYNVRSYTTSRFDYWGQGTQVTVSS observed_value="low polyreactivity"
primary_sequence=QVQLVESGGGLVQAGGSLRLSCAASGSTFDKYAMGWYRQAPRKERELVAAITWGGGSTYYADSVKGRITISRDNAKNTVYLPMNSLKPEDTAVYYCAAEQRSSVLYDSWGQGTQVTVSS observed_value="low polyreactivity"
primary_sequence=QVQLVESGGGLVQAGGSLRLSCAASGIIFSTYAMGWYRQAPGKERELVAAISDGGASTYYADSVKGRFTISRDNAKNTVYLQMNSLKPEDTAVYFCAAVQTAGQFRYGYWGQGTQVTVSS observed_value="high polyreactivity"

Fill in the blank: the reported polyreactivity (PSR sort gate) of QVQLVESGGGLVQAGGSLRLSCAASGSIFPRYAMGWYRQAPGKERELVAAITSSAGSTYYADSVKGRFTISRDNAKNTVYLQMNSLKPEDTAVYYCAASGPWSYWYDYWGQGTQVTVSS is ____.
low polyreactivity

Fill in the blank: the reported polyreactivity (PSR sort gate) of QVQLVESGGGLVQAGGSLRLSCAASGRIFWYNAMGWYRQAPGKERELVAVISTRGGRTYYADSVKGRFTISRDNAKNTVYLQMNSLKPEDTAVYYCAAEFLNKAVGGVTSIYDSWGQGTQVTVSS is ____.
low polyreactivity

Fill in the blank: the reported polyreactivity (PSR sort gate) of QVQLVESGGGLVQAGGSLRLSCAASGRISRNYAMGWYRQAPGKERELVAAINRGGSTYYADSVKGRFTISRDNAKNTVYLQMNSLKPEDTAVYYCAARYPNQYDYWGQGTQVTVSS is ____.
high polyreactivity

Fill in the blank: the reported polyreactivity (PSR sort gate) of QVQLVESGGGLVQAGGSLRLSCAASGSTFQGYTMGWYRQAPGKERELVAAISVRRGITYYADSVKGRFTISRDNAKNTVYLQMNSLKPEDTAVYYCNAYYYRPYGNKYGYWGQGTQVTVSS is ____.
high polyreactivity

Fill in the blank: the reported polyreactivity (PSR sort gate) of QVQLVESGGGLVQAGGSLRLSCAASGRIFLGYAMGWYRQAPGKERELVAAISAGGGSTYYADSVKGRFTISRDTAKNTVYLLMNSLKPEDTAVYYCAARRPHIPVKTYDYWGQGTQVTVSS is ____.
high polyreactivity

Fill in the blank: the reported polyreactivity (PSR sort gate) of QVQLVESGGGLVQAGGSLRLSCAPSGSTFDRNDMGWYRQAPGKERELVAAISRVSSTNYADSVKVRFTISRDNAKNTVYLQMNSLKPADTAVYYCAADRAGSIMNYWGQGTQETVSS is ____.
low polyreactivity

----------
- assay_notes: yeast display, Sf9 membrane polyspecificity reagent, FACS + sequencing; frameworks hold sequencing errors
parameter_measured: polyreactivity (PSR sort gate)

Reference set (5 entries):
primary_sequence=QVQLVESGGGLVQARGSLRLSCAASGSTFIRYAMGWYRQAPGKERELVAAITWRGGSTYYADSVKGRFTISRDNAKNTVYLQMNSLKPEDTAVYYCAARDRDTRNYYWGQGTQGTVSS parameter_measured="polyreactivity (PSR sort gate)" observed_value="high polyreactivity"
primary_sequence=QVQLVESGGGLVQAGGSLRLSCAASGSTFRYYTMGWYRQAPGKERELVARISWSGGSTYYADSVKGRFTISRDNAKNTVYLQMNSLKPEDTAVYYCNAVLFYFQTRDYWGQGTQVTVSS parameter_measured="polyreactivity (PSR sort gate)" observed_value="high polyreactivity"
primary_sequence=QVQLVESGGGLVQAGGSLRLSCAASGSTFEYNAMGWYRQAPGKERELVASSTNYADSVKGRFTISRDNAKNTVYLQMNSLKPVDTAVYYCAREQGVNRNHDYWGQGTQLTVSS parameter_measured="polyreactivity (PSR sort gate)" observed_value="low polyreactivity"
primary_sequence=QVQLVESGGGLVQAGGSLRLTCAASGGIFVFYAMGWYRQAPGKERELVAAIRYGGSSTYYADSVKGRFTISRDNAKNTVYLQMNSLKPEDTAVYYCAAEPYSWDTWVDYDYWGQGTQVTVSS parameter_measured="polyreactivity (PSR sort gate)" observed_value="low polyreactivity"
primary_sequence=QVQLVESGGGLVQAGGSLRLSCAASGRIFGRYALGWYRQAPGKERELVAAISSSGGSTYFADSVKGRFTISRDNAKNTVYLQMNSLKPEDTAGYYCAADVSAKRYYWGQGTQVTVSS parameter_measured="polyreactivity (PSR sort gate)" observed_value="high polyreactivity"

Fill in the blank: the reported polyreactivity (PSR sort gate) of QVQLVESGGGLVQAGGSLRLSCAASGRILAPYVMGWYRQAPGKERELVAAISRSTGRTYYADSVKGRFTISRDNAKNTVYLQMNSLKPEDTAVYYCNRDVRVSLMGYWGQGTQVTVSS is ____.
high polyreactivity

Fill in the blank: the reported polyreactivity (PSR sort gate) of QDQLVESGGGLVQAGGSLRLSCAASGRTFRYYAMGWYRQAPRKERELVAAISSGGSTNYADSVKARFTISRDNAKNTVYLQMNRLKPEDTGVYYCAVQAWYMTYSYPYSKGYYWGQGTQLTVSS is ____.
high polyreactivity

----------
- assay_notes: yeast display, Sf9 membrane polyspecificity reagent, FACS + sequencing; frameworks hold sequencing errors
parameter_measured: polyreactivity (PSR sort gate)

primary_sequence=QVQLVESGGGLVQAGGSLRLSCAASGRTFPGNAMGWYRQAPGKERELVAAISWSGTRTYYADSVKGRFTISRDNAKNTVYLQINSLKPEDTAVYYCAARRYGVRSYGFDSWGQGTQVTVSS observed_value="high polyreactivity"
primary_sequence=QVQLQESGGGLAQAGGSLRLSCAASGTIFPADSMGWYRQAPGKERELVAGITSGANTYYADSVKGRFTISHDNAKYTVYLQMDSLIPEDIAVYYCAAPGSSTYDLEYWGQGTQVTVSS observed_value="high polyreactivity"

----------
- assay_notes: yeast display, Sf9 membrane polyspecificity reagent, FACS + sequencing; frameworks hold sequencing errors
parameter_measured: polyreactivity (PSR sort gate)

Reference set (4 entries):
primary_sequence=QVQLVESGGGLVQAGGSLRLSCSASGITFKRYAMGWYRQAPGTERELVAAITISACSTYYADSVKGRFTNSRDIAKNTVYLQMNSLKPEVTAVYYCAAVSYGSWYYYWGQGTHVTVSS parameter_measured="polyreactivity (PSR sort gate)" observed_value="high polyreactivity"
primary_sequence=QVQLVESGGGLVQAGGSLRLSCAASGSTIPSYALGWYRPAPGKERELGASITYSDGTTRYADSVKARFTISRDNAKNTVYLQMNSLKPEDTAVYYCNAVYYREGMDYWGQGTQVTVSS parameter_measured="polyreactivity (PSR sort gate)" observed_value="low polyreactivity"
primary_sequence=QVQLVESGGGLVQAGGSLRLSCDASGFTIYHYAIGCYRQATGKERELVDANSRSGGSTYYADSVKGRFTISRDNAQNTFYLQMNSLKPEDTAVYYCAKVLRAKNSFDYWGQGTQVTVSS parameter_measured="polyreactivity (PSR sort gate)" observed_value="high polyreactivity"
primary_sequence=QVQLVESGGGLVQAGGSLRLSCAASGSIFLVNAMGWYRQAPGERKELVAAISWSSGSTYYADSVKGRFTNSRDNAKNTVYLQMNSLKPEDTAVYYCAKRSSITYRYDYWGQGTQVTVSS parameter_measured="polyreactivity (PSR sort gate)" observed_value="high polyreactivity"

Fill in the blank: the reported polyreactivity (PSR sort gate) of QVQLVESGGGLVQAGGTLRLSCAATGSIFPGNAMGWYRPAPGKERELVAAISGRGGSTYYADSVKGRFTISRDNAKNTVYVQMNSLKPEDTAVYYCAAAPVYRPRDSYDKHRHYYWGQCTQVTVSS is ____.
high polyreactivity

----------
- assay_notes: yeast display, Sf9 membrane polyspecificity reagent, FACS + sequencing; frameworks hold sequencing errors
parameter_measured: polyreactivity (PSR sort gate)

Reference set (4 entries):
primary_sequence=QVQLVESGGGLVQAGGSLRLSCAASGRIFGTNAMGWYRPAPGKERELVARITISTASTYYADSVKGRFTISRDNAKNTVSLQMNSLKPEDTAVYYCGVRWYIRSRPKVYKYDYWGQGTQVTVSS parameter_measured="polyreactivity (PSR sort gate)" observed_value="high polyreactivity"
primary_sequence=QVQLVESGGGLVQAGGSLRLSCAASGLTFYSNAMRWYRQAPGKEREVVARISTGGSTYADSVKGRFTISRDNAKKTVYLQMNSLKPQDTEVYYCAKLPPRGIDDEYWGQGTQVTVSS parameter_measured="polyreactivity (PSR sort gate)" observed_value="low polyreactivity"
primary_sequence=QVQLVESGGCLVQAGGSLRLTCAASGRIFDLYTMGWYRQATGIERELVAGIYGNGDGTYADSVKGLFTISRDNAKNPVYLQMNSLKPEDTAVYYCAADGIYIYHPYTRFDYCGQGTQVTVSS parameter_measured="polyreactivity (PSR sort gate)" observed_value="low polyreactivity"
primary_sequence=QDQLVESGGGLVQAGGSLRLSCAASGSIFYPYAMGWYRQATGKEREFVAGITTRGGSTYYADSVKGRFTISRDNAKNTVYLQMNSLKPVDTAVYYCNAGYYLTLDYWGQGTQVTVSS parameter_measured="polyreactivity (PSR sort gate)" observed_value="high polyreactivity"

# input for lookup
Fill in the blank: the reported polyreactivity (PSR sort gate) of QVQLVESGAGIVQAGGSLRLSCAASGLTFANYVMGGYRQAPGKERELVAAISRSGGSTYYADSVKGRFTISRDNAKKTVNLQMNCLKPEDTAVYYCAAAAWDPKGSRYDSWGQGTQVSVSS is ____.
low polyreactivity
